Provenance of the data: ChEMBL document CHEMBL3860024

# test summary: Antioxidant activity assessed as AAPH free radical scavenging activity by measuring trolox equivalent by oxygen radical absorbance capacity method
# Format: functional
Param label: returns Met when Activity < 1 equiv, returns Not met otherwise, including exact equality.

Example entries begin here.
1) CN(Cc1ccccc1)Cc1ccc(NC(=O)/C=C/c2ccc(O)cc2)cc1 = Not met
2) CN(Cc1ccccc1)Cc1ccc(NC(=O)/C=C/c2cccc(O)c2)cc1 = Not met
3) COc1cccc(/C=C/C(=O)Nc2ccc(CN(C)Cc3ccccc3)cc2)c1 = Met
4) COc1ccc(/C=C/C(=O)NCCC2CCN(Cc3ccccc3)CC2)cc1OC = Met
5) COc1cc(/C=C/C(=O)Nc2ccc(CN(C)Cc3ccccc3)cc2)ccc1O = Not met
6) COc1cc(/C=C/C(=O)Nc2cccc(CN(C)Cc3ccccc3)c2)ccc1O = Not met
7) O=C(/C=C/c1ccc(O)cc1O)NCCC1CCN(Cc2ccccc2)CC1 = Not met

Say whether its Activity is strictly beneath 1 equiv. Entry: `COc1ccc(/C=C/C(=O)Nc2ccc(CN(C)Cc3ccccc3)cc2)cc1OC`
Met
